- Tested On: HLA-A*03:01
- Assay Summary: IEDB peptide-MHC binding, purified MHC/competitive/fluorescence; bounds were set here for any values at or beyond the usual limits of such assays
- Test Parameters: source organism: Variola virus
Measured Parameter: IC50 (µM)
One number for each entry, in µM.

Can you look up the measured IC50 of "SLPRIALVR" for me?
0.781

----------
- Tested On: HLA-A*31:01
- Assay Summary: IEDB peptide-MHC binding, purified MHC/competitive/radioactivity; filed as Kd, often an IC50 or EC50 that approximates it; bounds were set here for any values at or beyond the usual limits of such assays
- Test Parameters: source organism: Triticum aestivum
pKd: −log10 of the molar value.
Measured Parameter: pKd

What pKd value was documented for this sequence, "VSFQQPQQQY" ?
≤ 4.15

----------
- Tested On: HLA-C*05:01
- Assay Summary: IEDB peptide-MHC binding, purified MHC/direct/fluorescence; filed as Kd, often an IC50 or EC50 that approximates it; bounds were set here for any values at or beyond the usual limits of such assays
- Test Parameters: source organism: Escherichia coli str. K-12 substr. MG1655
Measured Parameter: Kd

Consider the sequence "AAAVAYPEL" and give its measured Kd.
≥ 20 µM

----------
- Tested On: HLA-A*30:01
- Assay Summary: IEDB peptide-MHC binding, purified MHC/competitive/radioactivity; filed as Kd, often an IC50 or EC50 that approximates it; bounds were set here for any values at or beyond the usual limits of such assays
- Test Parameters: source organism: Dengue virus 2 Jamaica/1409/1983
Hi there, I'd appreciate the recorded Kd for every entry that follows.
Numbers only, in nM.

For orientation, consider the following solved cases.
Please report the recorded Kd for "RERLSRMAI" .
828

Recorded Kd for "KLKPRWLDA" , please?
21

Dear colleague, I am looking for the recorded Kd of the following sequence: "NAICSAVPSH"
6440

Now turn to the next sequence.
Find the recorded Kd belonging to "TFKNPHAKK" and report it.
1460

----------
- Tested On: HLA-A*24:03
- Assay Summary: IEDB peptide-MHC binding, purified MHC/direct/fluorescence; filed as Kd, often an IC50 or EC50 that approximates it; bounds were set here for any values at or beyond the usual limits of such assays
- Test Parameters: source organism: Rickettsia prowazekii
I'd be grateful if you could share measured Kd for these entries.
Numbers only, in nM.

Sample "IYSAEFKNY" — what was its Kd?
1410

Would you kindly look at the next entry?
# input sequence: "QFAGGSFDF" ; wanted: its Kd
336

----------
- Tested On: HLA-A*29:02
- Assay Summary: IEDB peptide-MHC binding, purified MHC/competitive/radioactivity; filed as Kd, often an IC50 or EC50 that approximates it; bounds were set here for any values at or beyond the usual limits of such assays
- Test Parameters: source organism: Mammarenavirus whitewaterense
Measured Parameter: Kd (nM)
Numbers only, in nM.

Query Kd on HLA-A*29:02 for "KFWYVNHTGF"
341

----------
Consider the following sequences; for each one, report its Kd.
- Tested On: HLA-A*26:01
- Assay Summary: IEDB peptide-MHC binding, purified MHC/competitive/fluorescence; filed as Kd, often an IC50 or EC50 that approximates it; bounds were set here for any values at or beyond the usual limits of such assays
- Test Parameters: source organism: Zaire ebolavirus

Batch request: Kd per item, same order as input.
1. SKLRALLTL
2. KLWTSISCA

["≥ 20 µM", "≥ 20 µM"]

----------
- Tested On: HLA-A*69:01
- Assay Summary: IEDB peptide-MHC binding, purified MHC/direct/fluorescence; filed as Kd, often an IC50 or EC50 that approximates it; bounds were set here for any values at or beyond the usual limits of such assays
- Test Parameters: source organism: Camelpox virus M-96
Measured Parameter: Kd

What does the record list as Kd for "EYKKFIATF" ?
≥ 20 µM

***
Kd for "FENDIDEIL" ?
≥ 20 µM

----------
- Tested On: HLA-B*18:01
- Assay Summary: IEDB peptide-MHC binding, purified MHC/competitive/fluorescence; filed as Kd, often an IC50 or EC50 that approximates it; bounds were set here for any values at or beyond the usual limits of such assays
- Test Parameters: source organism: Reston ebolavirus - Reston (1989)
pKd: −log10 of the molar value.
Measured Parameter: pKd

Reported pKd for "FSDLCNFLI" : what is it?
≤ 4.70

----------
- Tested On: HLA-B*40:01
- Assay Summary: IEDB peptide-MHC binding, purified MHC/competitive/radioactivity; filed as Kd, often an IC50 or EC50 that approximates it; bounds were set here for any values at or beyond the usual limits of such assays
- Test Parameters: source organism: SARS coronavirus Tor2
Measured Parameter: log10(Kd) (log10 of the value in nM)
Form field - Quantity: Kd; Unit: nM; Scale: log10

Please review the following examples before continuing.
Notebook: pull reported log10(Kd) for HLA-B*40:01, entry "SEAPNAKEEI"
3.07

Look up log10(Kd) with HLA-B*40:01 for this sequence: "FELTSMKYFV"
3.33

For the record "QELYSPLFLI" , what value of log10(Kd) is listed for HLA-B*40:01?
2.84

GET /values?readout=log10(Kd)&system=HLA-B*40:01&item= "REGVFVFNGT"
2.83

Let us move to another entry and its log10(Kd).
Provide value of log10(Kd) for this record tested with HLA-B*40:01: "FEKMVSLLSV"
1.40

----------
Task for the reader: assign each of the following sequences its reported pKd.
- Tested On: HLA-B*46:01
- Assay Summary: IEDB peptide-MHC binding, purified MHC/direct/fluorescence; filed as Kd, often an IC50 or EC50 that approximates it; bounds were set here for any values at or beyond the usual limits of such assays
- Test Parameters: source organism: Listeria monocytogenes serotype 4b str. H7858
pKd: −log10 of the molar value.

What does the data say about its pKd? Entry: "ERYPGGVSL"
≤ 4.70

Please find the next sequence below.
Need pKd of "FPDGKPFTL" , thanks.
≤ 4.70

----------
- Tested On: HLA-A*26:02
- Assay Summary: IEDB peptide-MHC binding, purified MHC/direct/fluorescence; filed as Kd, often an IC50 or EC50 that approximates it; bounds were set here for any values at or beyond the usual limits of such assays
- Test Parameters: source organism: Influenza A virus H3N2
pKd: −log10 of the molar value.
Measured Parameter: pKd

Please report the recorded pKd for "EEIRRIWRQ" .
≤ 4.70

----------
- Tested On: HLA-A*26:03
- Assay Summary: IEDB peptide-MHC binding, purified MHC/competitive/fluorescence; filed as Kd, often an IC50 or EC50 that approximates it; bounds were set here for any values at or beyond the usual limits of such assays
- Test Parameters: source organism: Mycobacterium tuberculosis variant bovis BCG str. Pasteur 1173P2
pKd: −log10 of the molar value.
Measured Parameter: pKd

Could you tell me which pKd is on file for "QVFKGVVIR" ?
≤ 4.70

----------
- Tested On: HLA-B*07:02
- Assay Summary: IEDB peptide-MHC binding, purified MHC/direct/fluorescence; filed as Kd, often an IC50 or EC50 that approximates it; bounds were set here for any values at or beyond the usual limits of such assays
- Test Parameters: source organism: Vibrio parahaemolyticus
pKd: −log10 of the molar value.
Measured Parameter: pKd

# query: pKd of entry "IRSCWRYRK"
≤ 4.70

----------
- Tested On: HLA-C*08:02
- Assay Summary: IEDB peptide-MHC binding, purified MHC/direct/fluorescence; filed as Kd, often an IC50 or EC50 that approximates it; bounds were set here for any values at or beyond the usual limits of such assays
- Test Parameters: source organism: Burkholderia mallei SAVP1
Measured Parameter: pKd
Numbers only, as −log10 of the molar value.

Form: Entry = "YVTPRALEL" | System = HLA-C*08:02 | pKd = ____
6.91

----------
- Tested On: HLA-B*39:01
- Assay Summary: IEDB peptide-MHC binding, purified MHC/competitive/fluorescence; filed as Kd, often an IC50 or EC50 that approximates it; bounds were set here for any values at or beyond the usual limits of such assays
- Test Parameters: source organism: Vibrio cholerae 2740-80
Measured Parameter: Kd

Below are some sequences; for each one, tell me its Kd.
1. IFIRTIYYH
2. KQLPPLAAW

≥ 20 µM
≥ 20 µM

----------
- Tested On: HLA-A*68:02
- Assay Summary: IEDB peptide-MHC binding, purified MHC/direct/fluorescence; filed as Kd, often an IC50 or EC50 that approximates it; bounds were set here for any values at or beyond the usual limits of such assays
- Test Parameters: source organism: Sudan ebolavirus
Measured Parameter: Kd

# query: Kd of entry "TMMRHRREL"
≥ 20 µM

----------
- Tested On: HLA-B*46:01
- Assay Summary: IEDB peptide-MHC binding, purified MHC/direct/fluorescence; filed as Kd, often an IC50 or EC50 that approximates it; bounds were set here for any values at or beyond the usual limits of such assays
- Test Parameters: source organism: Reston ebolavirus - Reston
Measured Parameter: Kd

Item "SKLRALLTL" has what recorded Kd?
≥ 20 µM
